B1: MMP1 (parent)
chain: FVRGDHRDNSPFDGPGGNLAHAFQ

Variants of: B1
PROTOCOL SUMMARY: protein stability index of a GFP-peptide fusion (GPS, HEK-293T) (PSI 1-6); higher = more stable;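 note: lentivirally expressed fusions sorted by FACS into six bins by GFP to DsRed ratio, PSI derived from sequencing read proportions per bin multiplied by bin number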
TEST SETTINGS: c terminus: a fixed tail appended

MUTANT LABEL: D8R
protein stability index: 1.62

MUTANT LABEL: D8N
protein stability index: 2.68

MUTANT LABEL: D5W
protein stability index: 2.86

MUTANT LABEL: R7T
protein stability index: 2.18

MUTANT LABEL: A20H
protein stability index: 1.44

MUTANT LABEL: H21V
protein stability index: 1.6

MUTANT LABEL: G17P
protein stability index: 1.37

MUTANT LABEL: H6C
protein stability index: 2.02

MUTANT LABEL: A22R
protein stability index: 2.58

MUTANT LABEL: H21I
protein stability index: 2.7

MUTANT LABEL: F23D
protein stability index: 1.9

The measurements presented in this section are drawn from the supplement of paper PMC10567573.
